Origin of measurements: PubChem BioAssay AID1963432

viability, T/C values, listed per item
# Test system: SYO-1 complex spheroid growth, percent test/control
# measurement_protocol: Anticancer human tumor SYO-1 cell line growth inhibition [Asc];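 note: compound exposure lasted 7 days after spheroids grew 3 days; 100% = DMSO vehicle control viability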
# applied_conditions: second compound 0.01 µM; first compound 0.316 µM; hits give low values
Express your answer in %, writing the number without its unit.

Below: 2 compounds and their reported viability, T/C.
{"columns": ["compound", "property_measured", "val"],
 "data": [
  ["C=C(F)C(=O)N1CCN(c2nc(OCC3CCCN3C)nc3c2CCN(c2cccc4cccc(Cl)c24)C3)CC1CC#N (stereo not drawn) + CNC(C)C(=O)NC1CN(S(=O)(=O)c2cccc(S(=O)(=O)N3CCC4CCC(C(=O)NC(c5ccccc5)c5ccccc5)N4C(=O)C(NC(=O)C(C)NC)C3)c2)CCC2CCC(C(=O)NC(c3ccccc3)c3ccccc3)N2C1=O", "viability, T/C", 104],
  ["O=C(c1cc(Cc2n[nH]c(=O)c3ccccc23)ccc1F)N1CCN(C(=O)C2CC2)CC1 + CNC(C)C(=O)NC1CN(S(=O)(=O)c2cccc(S(=O)(=O)N3CCC4CCC(C(=O)NC(c5ccccc5)c5ccccc5)N4C(=O)C(NC(=O)C(C)NC)C3)c2)CCC2CCC(C(=O)NC(c3ccccc3)c3ccccc3)N2C1=O", "viability, T/C", 105]
]}

Here is another compound to look at.
The measured viability, T/C associated with C=CC(=O)N1CCN(c2nc(=O)n(-c3c(C)ccnc3C(C)C)c3nc(-c4c(O)cccc4F)c(F)cc23)C(C)C1 (stereo not drawn) + CNC(C)C(=O)NC1CN(S(=O)(=O)c2cccc(S(=O)(=O)N3CCC4CCC(C(=O)NC(c5ccccc5)c5ccccc5)N4C(=O)C(NC(=O)C(C)NC)C3)c2)CCC2CCC(C(=O)NC(c3ccccc3)c3ccccc3)N2C1=O reads 101
